# TARGET ENTITY: Recombinant PCNA (proliferating cell nuclear antigen) (human, UniProt P12004 1-261)
# Sequence (P12004 whole entry): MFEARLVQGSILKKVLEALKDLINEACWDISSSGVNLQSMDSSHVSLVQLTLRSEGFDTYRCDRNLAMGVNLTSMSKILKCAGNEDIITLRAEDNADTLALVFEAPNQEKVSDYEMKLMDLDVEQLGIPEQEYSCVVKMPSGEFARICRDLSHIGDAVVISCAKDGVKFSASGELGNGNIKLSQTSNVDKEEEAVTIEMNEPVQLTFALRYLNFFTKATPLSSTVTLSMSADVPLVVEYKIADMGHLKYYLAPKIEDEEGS
# TEST DESCRIPTION: SPR; 500 nM caPep
ASSAY READOUT: Kd

* SKSRQGSTQGRLDDFF [FEN1 peptide containing the PIP-box] | 3.33 µM
